Provenance of the data: patent US20180327367A1

# TEST SYSTEM: SpsB (Staphylococcus aureus signal peptidase) (Staphylococcus aureus)
# Construct: This assay uses a suspension of Staphylococcus aureus cells as a source of SpsB instead of recombinant SpsB protein; endogenous in cells; host or cells: S. aureus, USA300 background, overexpressing SpsB (whole-cell suspension from frozen pellets)
# Sequence (P0A070 whole entry): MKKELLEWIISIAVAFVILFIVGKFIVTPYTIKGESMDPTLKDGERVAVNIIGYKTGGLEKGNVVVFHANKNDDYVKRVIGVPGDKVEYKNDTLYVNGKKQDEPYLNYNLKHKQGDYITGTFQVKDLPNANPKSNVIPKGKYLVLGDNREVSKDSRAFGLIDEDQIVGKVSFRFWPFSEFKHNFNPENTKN
# ASSAY NAME: cell-based
# Format: biochemical
# CONDITION LABEL: SpsB IC50, whole-cell S. aureus (USA300 background, overexpressing SpsB) as SpsB source; fluorogenic peptide substrate, kinetic read 30 min
ENDPOINT: pIC50
Give bare numbers, as −log10 of the molar value.

MOLECULE | TEST SYSTEM | pIC50
CCCC(C)(C)COc1ccc(C(=O)N[C@@H](CCN)C(=O)N(C)[C@@H]2C(=O)N[C@@H](C)C(=O)N[C@H](C(=O)NCC#N)Cc3ccc(OCCN)c(c3)-c3cc2ccc3OCCN)c(C)c1 [Compound 288] | SpsB (Staphylococcus aureus signal peptidase) (Staphylococcus aureus) | 8.96
CCCCCCCCNCCCCC(=O)N(C)[C@@H]1C(=O)N[C@@H](C)C(=O)N[C@H](C(=O)NCC#N)Cc2ccc(OCCN)c(c2)-c2cc1ccc2OCCN [Compound 134] | SpsB (Staphylococcus aureus signal peptidase) (Staphylococcus aureus) | 8.46
CCC(C)c1ccc(C(=O)N[C@@H](CCN)C(=O)N(C)[C@@H]2C(=O)N[C@@H](C)C(=O)N[C@H](C(=O)NCC#N)Cc3ccc(OCCN)c(c3)-c3cc2ccc3OCCN)c(C)c1 (some centres unmarked) [Compound 434] | SpsB (Staphylococcus aureus signal peptidase) (Staphylococcus aureus) | 8.82
CCCCCCCCc1ccc(C(=O)N[C@@H](CCN)C(=O)N(C)[C@@H]2C(=O)N[C@@H](C)C(=O)N[C@H](C(=O)NCC#N)Cc3ccc(OCCN)c(c3)-c3cc2ccc3OCCN)c(OC)c1 [Compound 209] | SpsB (Staphylococcus aureus signal peptidase) (Staphylococcus aureus) | 9.04

Lab note: next molecule to report on.
The reported pIC50 of the molecule CCCCCCCCCCCC(=O)N[C@@H](CCC(N)=O)C(=O)N(C)[C@@H]1C(=O)N[C@@H](C)C(=O)N[C@H](C(=O)NCC#N)Cc2ccc(OCCN)c(c2)-c2cc1ccc2OCCN [Compound 244] was 9.00
